Reference source: ChEMBL document CHEMBL5143610

# measurement.target: Cyclin-dependent kinase 14 (Homo sapiens)
# assay.method.text: Inhibition of GST-tagged human recombinant full-length CDK14 (2 to end residues) expressed in baculovirus expression system preincubated for 30 mins by Lanthascreen Eu-Kinase binding assay
recorded.metric: pIC50
Formally, pIC50 is defined as -log10 of the concentration c, with c in mol/L.

Result for CN(C)C/C=C/C(=O)Nc1cccc(S(=O)(=O)N2CCC(NC(=O)c3n[nH]cc3NC(=O)c3c(Cl)cc(Cl)cc3Cl)CC2)c1 , tested on Cyclin-dependent kinase 14 (Homo sapiens), pIC50: 7.06

---

# measurement.target: Cyclin-dependent kinase 2 (Homo sapiens, UniProt P24941)
recorded.metric: IC50 (nM)
Supply the numeric figure in nM, leaving out any unit text.

Result for COCCN1CCN(Cc2ccc(-c3n[nH]c4c3C(=O)c3c(NC(=O)NN5CCOCC5)cccc3-4)cc2)CC1 , tested on Cyclin-dependent kinase 2 (Homo sapiens, UniProt P24941), IC50: 3

---

# measurement.target: Cyclin-dependent kinase 14 (Homo sapiens, UniProt O94921)
# Sequence (O94921 whole entry): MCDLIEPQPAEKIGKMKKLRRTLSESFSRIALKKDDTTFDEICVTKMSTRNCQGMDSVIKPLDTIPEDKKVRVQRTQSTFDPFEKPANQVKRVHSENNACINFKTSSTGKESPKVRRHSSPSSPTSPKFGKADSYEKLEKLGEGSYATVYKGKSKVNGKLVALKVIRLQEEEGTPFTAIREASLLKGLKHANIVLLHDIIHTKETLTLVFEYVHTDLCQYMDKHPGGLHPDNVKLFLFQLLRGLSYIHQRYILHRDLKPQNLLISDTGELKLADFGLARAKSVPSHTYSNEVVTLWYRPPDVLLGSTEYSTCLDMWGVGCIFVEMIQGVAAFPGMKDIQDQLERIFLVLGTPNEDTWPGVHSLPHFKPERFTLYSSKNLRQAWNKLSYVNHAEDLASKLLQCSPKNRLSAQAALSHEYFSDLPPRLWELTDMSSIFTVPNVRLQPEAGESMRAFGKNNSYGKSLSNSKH
# assay.method.text: Inhibition of CDK14 (unknown origin) incubated for 6 hrs by NanoBRET assay
recorded.metric: pIC50
Formally, pIC50 is defined as -log10 of the concentration c, with c in mol/L.

# pIC50 (compound: CN(C)C/C=C/C(=O)Nc1cccc(S(=O)(=O)N2CCC(NC(=O)c3n[nH]cc3NC(=O)c3c(Cl)cc(Cl)cc3Cl)CC2)c1 ) is 7.41

---

# assay.method.text: Half life in overnight-fasted BALB/c mouse dosed intraperitoneally measured for 0.5 to 6 hrs by LC/MS/MS analysis
# Format: ADME, organism-based
# test.conditions: in vivo, time 0.5-6 hrs, route ip
recorded.metric: half-life (h)
Supply the numeric figure in h, leaving out any unit text.

# half-life (compound: CN1CC[C@@H](c2c(O)cc(O)c3c(=O)cc(-c4ccccc4Cl)oc23)[C@@H](O)C1 ) is 1.1
